- System: TK-10
- Assay name: NCI tumour cell line growth inhibition, 48 h
Calls of active or inactive are those of the source. Cut-off read from the data, not from the text of the source: active = GI50 up to about 1.1 µM and inactive = higher.
Listed molecules paired with reported GI50

COc1ccc2c(c1)CC1C3(CCCCC23)CC[N+]1(C)C (stereo unspecified) = > 100 µM (inactive)
Cc1c(O)c(O)cc[n+]1C1OC(CO)C(O)C1O (stereo unspecified) = > 100 µM (inactive)
S=C(N/N=C/c1ccccn1)Nc1ccc(Cl)cc1 = 2.93 µM (inactive)

[ask] So what's the measured GI50 for this one? `Cc1cc(N(CCC#N)CCC#N)ccc1/C=C1N=C(/C=C/c2ccccc2)OC(=O)N\1`
[reply] > 100 µM (inactive)

[ask] Here is the next molecule: `COC(=O)c1sc(=O)sc1SCc1cccc(CSc2sc(=O)sc2C(=O)OC)c1`
[reply] 23.2 µM (inactive)

[ask] Thanks! And `O=C1c2ccccc2C(=O)c2sc(Nc3cc(Cl)ccc3Cl)nc21` ?
[reply] 15 µM (inactive)

[ask] Okay, and `CC(C)(C)OC(=O)NCC(c1c[nH]c2cc(Br)ccc12)c1c[nH]c2cc(Br)ccc12` ?
[reply] 19.7 µM (inactive)

[ask] Follow-up entry: CC(C)C(NC(=O)C(Cc1ccccc1)NC(=O)[C@H]1CCC[C@H]1NC(=O)C(N)Cc1ccc(O)cc1)C(N)=O (stereo partly specified)
[reply] > 100 µM (inactive)

[ask] Now consider `COc1ccc(CCNCCCC2c3ccccc3-c3ccccc32)cc1OC` and answer again.
[reply] 14.4 µM (inactive)

[ask] Consider next the molecule `CCSc1n/c(=C\c2ccco2)c2nncn12` in the same way.
[reply] > 100 µM (inactive)

[ask] Same lookup for `C1CCCCC2(CCCCCCCCC3(CCC1)SCCS3)SCCS2` , please.
[reply] > 100 µM (inactive)

[ask] Moving on to `Cc1cccc2c1NC(=O)/C2=N\Nc1ccccc1[N+](=O)[O-]`
[reply] 6.84 µM (inactive)

[ask] Follow-up entry: `C[C@@H](Cl)[C@H]1CCCN(Cc2ccc(Br)cc2)C1`
[reply] > 12.5 µM (inactive)

[ask] Check `Cc1ccc(C(C)C)c(OCC(=O)N/N=C/c2c[nH]c3ccc(Br)cc23)c1` too.
[reply] 2.4 µM (inactive)

[ask] Also `COc1ccc(NC(=O)CCc2cc(C(C)(C)C)[nH]n2)cc1` , if possible.
[reply] > 100 µM (inactive)

---

- Tested on: SF-268
- Assay name: NCI tumour cell line growth inhibition, 48 h
Active and inactive are the calls of the source. Cut-off read from the data, not from the text of the source: active = GI50 up to about 1.1 µM and inactive = higher.
Examples of molecules with documented GI50 follow.

Reference set (5 entries):
CO[C@@]12C[C@H](CNC(=O)c3ccc[nH]3)O[C@@H]1NC(=O)N2 = > 100 µM (inactive)
[O-][S+](Nc1ccccc1)c1ccc(N2CCOCC2)cc1 (stereo unspecified) = 15.4 µM (inactive)
Cn1ccc2c(C(=O)c3ccccc3)cccc2c1=O = 97.7 µM (inactive)
CC(=O)c1sc(=N)n(-c2c(C)cccc2C)c1C = > 100 µM (inactive)
Cc1cnc2nc(-c3sccc3C)cc(O)c2c1 = 10.9 µM (inactive)

[ask] What value of measured GI50 is listed for `N#CC(C#N)=C(N)/C(C#N)=C/c1ccc2[nH]ccc2c1` ?
[reply] > 100 µM (inactive)

[ask] Repeat for the following molecule: CCOC(=O)C(CC(C)C)NC(=O)CSc1nnc(COc2ccc(Cl)cc2)n1-c1ccccc1 (stereo unspecified)
[reply] 18.2 µM (inactive)

[ask] Then what about the molecule `CN(C)CCNC(=O)c1c(O)ccc2c1c1c(n2CCc2ccccc2)C(=O)c2ccccc2C1=O` ?
[reply] 4.15 µM (inactive)
